The reported measurements were obtained from PubChem BioAssay (NCI).

Tested on: SK-OV-3 ovarian
procedure.summary: NCI tumour cell line growth inhibition, 48 h
experimental.readout: GI50

{"compound": "NC(=O)c1ccc(I)c([N+](=O)[O-])c1", "GI50": "> 100 µM"}
{"compound": "FC(F)(F)c1cccc(Oc2ccc(Nc3ncnc4ccc(OCCCN5CCOCC5)cc34)cc2Cl)c1", "GI50": "1.38 µM"}
{"compound": "NC(CCl)=NCC12CC3CC(CC(C3)C1)C2", "GI50": "4.1 µM"}
{"compound": "N#C[S-].[Ce+3].c1ccc(-c2ccccn2)nc1.c1ccc(-c2ccccn2)nc1.c1ccc(-c2ccccn2)nc1", "GI50": "27 µM"}
{"compound": "O=c1cc(-c2ccccc2)oc2c(O)c(O)ccc12", "GI50": "23.8 µM"}
{"compound": "O=C1NN(C(=O)c2ccccc2)C(c2ccc(Cl)c(Cl)c2)=C/C1=C\\c1ccccc1[N+](=O)[O-]", "GI50": "4 µM"}

Task: GI50 for C[N+]1(CCNP(=S)(NCC[N+]2(C)Cc3c(ccc4c3OCO4)C3C2c2cc4c(cc2C[C@@H]3O)OCO4)NCC[N+]2(C)Cc3c(ccc4c3OCO4)C3C2c2cc4c(cc2C[C@@H]3O)OCO4)Cc2c(ccc3c2OCO3)C2C1c1cc3c(cc1C[C@H]2O)OCO3 (some centres not stated) ?
Output: 2.96 µM

====

Test system: SK-MEL-5 melanoma
procedure.summary: NCI tumour cell line growth inhibition, 48 h
experimental.readout: TGI (µM)
Give bare numbers, in µM.

{"compound": "C#Cc1cccc(Nc2nc(C)nc3cc(NC(=O)CCl)ccc23)c1", "system.name": "SK-MEL-5 melanoma", "u": "µM", "TGI": 7.04}

// for each compound in input: emit TGI
1. CC(=O)OC1CC2C(C)(C)C(=O)C=C[C@]2(C)C2CCC3(C)C(c4ccoc4)C(=O)C4OC43[C@]12C (stereo partly specified)
2. Cc1cccc2c(=O)c3c(sc12)c(NCCCN)nc1ccccc13
3. CC1=NC(C)=C(/C(C)=N/NC(=O)c2ccccc2O)C(C)/C1=C(/C)NNC(=O)c1ccccc1O (stereo unspecified)
4. O=[N+]([O-])c1cc(I)cc(/C=N/NS(=O)(=O)c2ccc(F)cc2)c1O
5. COc1ccc2c(c1)/C(=C\c1c(-c3ccccc3)nc3sccn13)C(=O)N2

Output:
1. 30
2. 3.18
3. 38.9
4. 45.2
5. 21.3

====

Tested on: A549 NSCLC
procedure.summary: NCI tumour cell line growth inhibition, 48 h
experimental.readout: TGI (µM)
Answers are plain numbers, in µM.

Below is a list of compounds. For each, state its recorded TGI.
1. OC(c1cc2ccccc2[nH]1)C(O)(c1cc2ccccc2[nH]1)c1cc2ccccc2[nH]1 (centres undefined)
2. C[C@]12CC[C@@H]3c4ccc(O)cc4CC[C@H]3[C@@H]1CC(Cc1ccccc1)(Cc1ccccc1)C2=O

Output:
63
48.4

====

Tested on: MALME-3M melanoma
procedure.summary: NCI tumour cell line growth inhibition, 48 h; in the data active = GI50 below about 0.43 µM; inactive = the rest
Respond using exactly one of the listed classes: true (1) for active, false (0) for inactive

As a guide, the following entries are already answered.
{"substance.smiles": "COc1nc2c(c(=O)n1C)CN(c1ccccc1)C(=O)CN2C", "system.name": "MALME-3M melanoma", "class": "false (0)"}
{"substance.smiles": "CC1(C)CC[C@]2(C(=O)NCCNCCN)CC[C@]3(C)C(=CC[C@@H]4[C@@]5(C)CCC(=O)C(C)(C)[C@@H]5CC[C@]43C)[C@@H]2C1", "system.name": "MALME-3M melanoma", "class": "false (0)"}
{"substance.smiles": "CC[C@H](C)[C@H](NC(=O)c1ncccn1)C(=O)N(C)[C@H](C[C@@H](OC(C)=O)c1nc(C(=O)N[C@@H](Cc2ccccc2)C[C@H](C)C(=O)OC)cs1)C(C)C", "system.name": "MALME-3M melanoma", "class": "false (0)"}
{"substance.smiles": "[Mn+3].[O-][Cl+3]([O-])([O-])O.[O-]c1ccccc1C=NCCN1CC1.[O-]c1ccccc1C=NCCN1CC1", "system.name": "MALME-3M melanoma", "class": "false (0)"}
{"substance.smiles": "N#Cc1c(N)c(C(=O)c2ccc3c(c2)OCCO3)n2c1CCCC2", "system.name": "MALME-3M melanoma", "class": "false (0)"}

Task: Entry O=C(Nc1ccc(Cl)cc1)c1cc(NCc2cc(O)ccc2O)ccc1O : call = ?
Output: false (0)

Task: Fill in: this test's call for Cn1cc(-c2ncnc3ccc(-c4cnc(Cl)c(NS(C)(=O)=O)c4)cc23)c2ccccc21 is ___
Output: true (1)

Task: Outcome logged for O=C(N/N=C/c1ccc([N+](=O)[O-])cc1)c1ccccc1Nc1ccnc(C(F)(F)F)c1 in this assay:
Output: false (0)

Task: I'd appreciate the recorded outcome for CC1(C)N=C(N)N=C(N)N1c1cccc(CCCCc2ccc(Cl)c(S(=O)(=O)F)c2)c1 from this test.
Output: false (0)

Task: Write down the call the test reported for this molecule. Item: CCCCCCCC(=O)Nc1nc2[nH]c(CN3CCN(Cc4cccc(I)c4)CC3)c(CN3CCN(Cc4cccc(I)c4)CC3)c2c(=O)[nH]1
Output: false (0)

Task: Would you mind telling me which call this test gave N[C@@H](Cc1c[nH]c2ccccc12)C(=O)NC1CCN(Cc2c[nH]c3ccc(Cl)cc23)CC1 ?
Output: false (0)

Task: Hello, I am checking results. What call was entered for O=c1cc(-c2ccccc2)oc2c(O)c(O)ccc12 ?
Output: false (0)

Task: Which outcome was entered for the molecule CCOc1ccc(Nc2ccnc3cc(Cl)ccc23)cc1 in this test?
Output: false (0)
